This section presents compounds with their documented MIC values.
# System: Proteus vulgaris

Answered examples (2):
IC#CCOc1ccncc1 [drawing 9] = 76 to 384 µg/mL
Clc1ncccc1OCC#CI [drawing 4] = 3 to 15 µg/mL

Entry IC#CCOc1cccnc1 [drawing 2] under Proteus vulgaris had MIC of 3 to 15 µg/mL

Entry Cc1ccc(OCC#CI)cn1 [drawing 3] under Proteus vulgaris had MIC of > 1920 µg/mL

Entry Nc1ncccc1OCC#CI [drawing 6] under Proteus vulgaris had MIC of 3 to 15 µg/mL

Entry IC#CCOCc1cccnc1 [drawing 8] under Proteus vulgaris had MIC of 15 to 76 µg/mL

Entry IC#CCSc1cccnc1 [drawing 7] under Proteus vulgaris had MIC of > 1920 µg/mL

Entry IC#CCSc1ccncc1 [drawing 10] under Proteus vulgaris had MIC of 384 to 1920 µg/mL

Entry Cc1ccc(OCC#CI)c(Cl)n1 [drawing 5] under Proteus vulgaris had MIC of > 1920 µg/mL

###

# Tested on: Aureobasidium pullulans (strain 2)
# ASSAY_NAME: Antifungal activity of painted birch blades after exposure to heat and light
# Format: cell-based
# Design: key: 0: No growth; 1: Slight growth; 2: Moderate growth; 3: Heavy growth
# STATED_CONDITIONS: 0.5%, after light (300-400 nm) and heat (40° C.) four weeks
This section presents molecules with their documented Surface Growth values.

Answered examples (3):
IC#CCSc1cccnc1 [drawing 24] = 2
Nc1ncccc1OCC#CI [drawing 23] = 0
Cc1ccc(OCC#CI)c(Cl)n1 [drawing 22] = 0

Okay, now this molecule:
Looking up IC#CCOCc1cccnc1 [drawing 25] , I found its Surface Growth recorded as 0

###

Hi! I'm sharing some MIC results obtained with Penicillium piscarium.

IC#CCOc1ccncc1 [drawing 9] = 0.03 to 0.12 µg/mL
Nc1ncccc1OCC#CI [drawing 6] = 0.6 to 3 µg/mL
Cc1ccc(OCC#CI)c(Cl)n1 [drawing 5] = 0.12 to 0.6 µg/mL
IC#CCSc1ccncc1 [drawing 10] = 0.12 to 0.6 µg/mL
IC#CCSc1cccnc1 [drawing 7] = 0.12 to 0.6 µg/mL

Looking up Clc1ncccc1OCC#CI [drawing 4] , I found its MIC recorded as 0.12 to 0.6 µg/mL

Looking up IC#CCOc1cccnc1 [drawing 2] , I found its MIC recorded as 0.12 to 0.6 µg/mL

Looking up IC#CCOCc1cccnc1 [drawing 8] , I found its MIC recorded as 0.12 to 0.6 µg/mL

Looking up Cc1ccc(OCC#CI)cn1 [drawing 3] , I found its MIC recorded as 0.03 to 0.12 µg/mL

###

# Test system: Aureobasidium pullulans (strain 1)
# ASSAY_NAME: Antifungal activity on painted surfaces, strain 1
# Assay type: cell-based
# Design: key: 0: No growth; 1: Slight growth; 2: Moderate growth; 3: Heavy growth
# STATED_CONDITIONS: 0.5% in vinyl acetate latex paint, Strain 1, three weeks
ASSAY_READOUT: Surface Growth
Note: the reply should be a number with no unit written.

Looking up IC#CCSc1cccnc1 [drawing 15] , I found its Surface Growth recorded as 0

Looking up Nc1ncccc1OCC#CI [drawing 14] , I found its Surface Growth recorded as 0

Looking up IC#CCOc1cccnc1 [drawing 11] , I found its Surface Growth recorded as 0

Looking up Cc1ccc(OCC#CI)cn1 [drawing 12] , I found its Surface Growth recorded as 0

Looking up Clc1ncccc1OCC#CI [drawing 13] , I found its Surface Growth recorded as 0

Looking up IC#CCSc1ccncc1 [drawing 18] , I found its Surface Growth recorded as 0

Looking up IC#CCOCc1cccnc1 [drawing 16] , I found its Surface Growth recorded as 0

Looking up IC#CCOc1ccncc1 [drawing 17] , I found its Surface Growth recorded as 0
